- assay-info: Kinetic solubility in aqueous media (nephelometry)
- Assay type: physicochemical
- condition-set: phosphate citrate buffer, pH 7.4, aqueous buffer, kinetic from dmso stock, phosphate citrate buffer pH 7.4, turbidity of three dilution steps; read-out: Solubility Score
Here, each record is paired with measured solubility data.

> print(dat)
                                   compound  value.kind   reported
1  O=C(NO)c1cnc(N2CCN(S(=O)(=O)c3ccc(-c4ccc(Cl)cc4)cc3)CC2)nc1 [Compound 184]  solubility  < 75.8 µM

For the compound CN(C)c1ccc2cc(S(=O)(=O)N3CCN(c4ncc(C(=O)NO)cn4)CC3)ccc2c1 [Compound 181] , give its measured solubility value.
> 454 µM

For the compound O=C(NO)c1cnc(N2CCN(S(=O)(=O)c3ccc4ccccc4c3)CC2)nc1 [Compound 6] , give its measured solubility value.
75.8 to 454 µM

For the compound CC(C)(C)c1ccc(-c2ccc(S(=O)(=O)N3CCN(c4ncc(C(=O)NO)cn4)CC3)cc2)cc1 [Compound 105] , give its measured solubility value.
< 75.8 µM

For the compound O=C(NO)c1ccc(N2CCN(S(=O)(=O)c3ccc(Oc4ccccc4)cc3)CC2)cc1 [Compound 82] , give its measured solubility value.
> 454 µM

For the compound Cc1c(C)c(S(=O)(=O)N2CCN(c3ccc(C(=O)NO)cc3)CC2)c(C)c2c1OC(C)(C)C2 [Compound 67] , give its measured solubility value.
< 75.8 µM

For the compound COc1ccc(S(=O)(=O)N2CCN(c3ncc(C(=O)NO)cn3)CC2)cc1OC [Compound 96] , give its measured solubility value.
> 454 µM

For the compound CN(C)Cc1ccccc1-c1ccc(S(=O)(=O)N2CCN(c3ncc(C(=O)NO)cn3)CC2)cc1 [Compound 126] , give its measured solubility value.
< 75.8 µM

----------
- study-system: histone deacetylase (HeLa nuclear extracts)
- assay-info: In vitro assay for inhibition of histone deacetylase
- Type: biochemical
- condition-set: [3H]acetylated histone H4 peptide substrate
value-kind: Enzyme activity pIC50

> print(dat)
                         compound.structure                              study.system             value.kind  reported
1  CN1CCN(Cc2ccccc2-c2ccc(S(=O)(=O)N3CCN(c4ncc(C(=O)NO)cn4)CC3)cc2)CC1  histone deacetylase (HeLa nuclear extracts)  Enzyme activity pIC50     8.228
2  O=C(NO)c1cnc(N2CCN(S(=O)(=O)c3ccc(-c4ccc(OCCN5CCOCC5)cc4)cc3)CC2)nc1  histone deacetylase (HeLa nuclear extracts)  Enzyme activity pIC50     7.939
3  CC(C)N(C)CCc1cccc(-c2ccc(S(=O)(=O)N3CCN(c4ncc(C(=O)NO)cn4)CC3)cc2)c1  histone deacetylase (HeLa nuclear extracts)  Enzyme activity pIC50     8.423

(1) CN(C)CCN(C)Cc1ccc(-c2ccc(S(=O)(=O)N3CCN(c4ncc(C(=O)NO)cn4)CC3)cc2)cc1
(2) O=C(NO)c1cnc(N2CCN(S(=O)(=O)c3ccc4ccccc4c3)CC2)nc1NO
Lowest Enzyme activity pIC50? choose 1 or 2 Indicate which entry you chose by stating its label.
2
(2: 5.215, 1: 8.308)

----------
- study-system: histone deacetylase (HeLa nuclear extracts)
- assay-info: In vitro assay for inhibition of histone deacetylase
- Format: biochemical
- condition-set: [3H]acetylated histone H4 peptide substrate
value-kind: Enzyme activity pIC50

> print(dat)
                          compound.structure  reported
 1  CN(C)S(=O)(=O)N1CCN(Cc2sccc2-c2ccc(S(=O)(=O)N3CCN(c4ncc(C(=O)NO)cn4)CC3)cc2)CC1     6.765
 2  O=C(NO)c1cnc(N2CCN(S(=O)(=O)N3CCOCC3)CC2)nc1     6.621
 3  CN(C)Cc1sccc1-c1ccc(S(=O)(=O)N2CCN(c3ncc(C(=O)NO)cn3)CC2)cc1     8.358
 4  O=C(NO)c1cnc(N2CCN(S(=O)(=O)c3ccc4cccnc4c3)CC2)nc1     7.688
 5  O=C(NO)c1ccc(CN2CCN(S(=O)(=O)c3ccc4ccccc4c3)CC2)cc1     6.481
 6  O=C(NO)c1cnc(N2CCN(S(=O)(=O)c3ccc(-c4cccc(CCO)c4)cc3)CC2)nc1     7.107
 7  O=C(NO)c1cnc(N2CCN(S(=O)(=O)c3ccc(-c4ccsc4CN4CCN(CCOCCO)CC4)cc3)CC2)nc1     8.011
 8  O=C(NO)c1cnc(N2CCN(S(=O)(=O)c3ccc(-c4cccc(CN5CCOCC5)c4)cc3)CC2)nc1     7.579
 9  Cn1nc(-c2ccc(S(=O)(=O)N3CCN(c4ncc(C(=O)NO)cn4)CC3)s2)cc1C(F)(F)F     7.464
10  O=C(NO)c1ccc(N2CCN(S(=O)(=O)c3ccc(Cl)s3)CC2)cc1     6.197
11  COc1ccccc1-c1ccc(S(=O)(=O)N2CCN(c3ncc(C(=O)NO)cn3)CC2)cc1     7.586
12  O=C(NO)c1cnc(N2CCN(S(=O)(=O)c3ccc(-c4cc(Cl)cc(Cl)c4)cc3)CC2)nc1     6.513
13  O=C(NO)c1cnc(N2CCN(S(=O)(=O)c3ccc(-c4ccc(CO)cc4)cc3)CC2)nc1     7.612

----------
- assay-info: Kinetic solubility in aqueous media (nephelometry)
- Type: physicochemical
- condition-set: phosphate citrate buffer, pH 7.4, aqueous buffer, kinetic from dmso stock, phosphate citrate buffer pH 7.4, turbidity of three dilution steps; read-out: Solubility Score
Here, each record is paired with measured solubility data.

Recorded results for 3 compounds are shown here.
> print(dat)
                         compound.structure  value.kind        reported
1  CN(C)c1cccc2c(S(=O)(=O)N3CCN(c4ccc(C(=O)NO)cc4)CC3)cccc12  solubility       < 75.8 µM
2  Cc1ccccc1-c1ccc(S(=O)(=O)N2CCN(c3ncc(C(=O)NO)cn3)CC2)cc1  solubility  75.8 to 454 µM
3  NCCNC(=O)c1ccc(N2CCN(S(=O)(=O)c3ccc4ccccc4c3)CC2)cc1  solubility       < 75.8 µM

For the compound "O=C(NO)c1cnc(N2CCN(S(=O)(=O)c3ccc(-c4ccsc4CN4CCN(CCO)CC4)cc3)CC2)nc1" , give its measured solubility value.
> 454 µM

----------
- study-system: histone deacetylase (HeLa nuclear extracts)
- assay-info: In vitro assay for inhibition of histone deacetylase
- Type: biochemical
- condition-set: [3H]acetylated histone H4 peptide substrate
- Experimental: The in vitro assay for inhibition of histone deacetylase (see example C.1) measures the inhibition of HDAC enzymatic activity obtained with the compounds of formula (I). HeLa nuclear extracts (supplier: Biomol) were incubated at 60 μg/ml with 2×10^−8 M of radiolabeled peptide substrate. […] After mixing and centrifugation, the radioactivity in an aliquot of the upper (organic) phase was counted in a β-counter. […]
value-kind: Enzyme activity pIC50

> print(dat)
                         compound.structure             value.kind  reported
1  O=C(NO)c1cnc(N2CCN(S(=O)(=O)c3ccc(-c4cccc(C(F)(F)F)c4)cc3)CC2)nc1  Enzyme activity pIC50     7.162
2  O=C(NO)c1cnc(N2CCN(S(=O)(=O)c3ccc(-c4ccc(CN5CCN(CCOCCO)CC5)cc4)cc3)CC2)nc1  Enzyme activity pIC50     7.947
3  O=C(NO)c1ccc(N2CCN(S(=O)(=O)c3cccc4cccnc34)CC2)cc1  Enzyme activity pIC50     6.449
4  CN1CCN(Cc2sccc2-c2ccc(S(=O)(=O)N3CCN(c4ncc(C(=O)NO)cn4)CC3)cc2)CC1  Enzyme activity pIC50     8.428
5  CC(=O)SCC(=O)c1ccc(N2CCN(S(=O)(=O)c3ccc4ccccc4c3)CC2)cc1  Enzyme activity pIC50       6.7

----------
- assay-info: Kinetic solubility in aqueous media (nephelometry)
- Assay type: physicochemical
- condition-set: phosphate citrate buffer, pH 7.4, aqueous buffer, kinetic from dmso stock, phosphate citrate buffer pH 7.4, turbidity of three dilution steps; read-out: Solubility Score
Here, each record is paired with measured solubility data.

> print(dat)
                          compound.structure        reported
 1  Nc1ccccc1NC(=O)c1cnc(N2CCN(S(=O)(=O)c3ccc4ccccc4c3)CC2)nc1       < 75.8 µM
 2  Cc1cccc(C)c1-c1ccc(S(=O)(=O)N2CCN(c3ncc(C(=O)NO)cn3)CC2)cc1  75.8 to 454 µM
 3  O=C(NO)c1cnc(N2CCN(S(=O)(=O)c3ccc(-c4ccc[nH]4)cc3)CC2)nc1  75.8 to 454 µM
 4  O=C(NO)c1cnc(N2CCN(S(=O)(=O)c3ccc(-c4ccsc4CN(CCO)CCO)cc3)CC2)nc1       < 75.8 µM
 5  COc1ccc(-c2ccc(S(=O)(=O)N3CCN(c4ncc(C(=O)NO)cn4)CC3)cc2)c(OC)c1OC  75.8 to 454 µM
 6  Cc1ccc(-c2ccc(S(=O)(=O)N3CCN(c4ncc(C(=O)NO)cn4)CC3)cc2)cc1  75.8 to 454 µM
 7  Cn1nc(-c2ccc(S(=O)(=O)N3CCN(c4ncc(C(=O)NO)cn4)CC3)s2)cc1C(F)(F)F        > 454 µM
 8  CN1CCN(Cc2sccc2-c2ccc(S(=O)(=O)N3CCN(c4ncc(C(=O)NO)cn4)CC3)cc2)CC1        > 454 µM
 9  O=C(NO)c1cnc(N2CCN(S(=O)(=O)c3ccc(-c4ccccc4CN4CCOCC4)cc3)CC2)nc1  75.8 to 454 µM
10  O=C(NO)c1cnc(N2CCN(S(=O)(=O)c3ccc(S(=O)(=O)c4ccccc4)s3)CC2)nc1  75.8 to 454 µM

For the compound "O=C(NO)c1ccc(N2CCN(S(=O)(=O)c3ccccc3C(F)(F)F)CC2)cc1" , give its measured solubility value.
75.8 to 454 µM

For the compound "O=C(NO)c1cnc(N2CCN(S(=O)(=O)c3ccc(-c4ccccc4CN(CCO)CCO)cc3)CC2)nc1" , give its measured solubility value.
75.8 to 454 µM

For the compound "CC(C)N(C)CCc1cccc(-c2ccc(S(=O)(=O)N3CCN(c4ncc(C(=O)NO)cn4)CC3)cc2)c1" , give its measured solubility value.
> 454 µM

Numbers sourced from patent US7205304B2.
